Data provenance: patent US11040981B2

Listing of entries alongside the reported IC50.
Biological target: AXL (Homo sapiens)
Sequence (P30530 26-894): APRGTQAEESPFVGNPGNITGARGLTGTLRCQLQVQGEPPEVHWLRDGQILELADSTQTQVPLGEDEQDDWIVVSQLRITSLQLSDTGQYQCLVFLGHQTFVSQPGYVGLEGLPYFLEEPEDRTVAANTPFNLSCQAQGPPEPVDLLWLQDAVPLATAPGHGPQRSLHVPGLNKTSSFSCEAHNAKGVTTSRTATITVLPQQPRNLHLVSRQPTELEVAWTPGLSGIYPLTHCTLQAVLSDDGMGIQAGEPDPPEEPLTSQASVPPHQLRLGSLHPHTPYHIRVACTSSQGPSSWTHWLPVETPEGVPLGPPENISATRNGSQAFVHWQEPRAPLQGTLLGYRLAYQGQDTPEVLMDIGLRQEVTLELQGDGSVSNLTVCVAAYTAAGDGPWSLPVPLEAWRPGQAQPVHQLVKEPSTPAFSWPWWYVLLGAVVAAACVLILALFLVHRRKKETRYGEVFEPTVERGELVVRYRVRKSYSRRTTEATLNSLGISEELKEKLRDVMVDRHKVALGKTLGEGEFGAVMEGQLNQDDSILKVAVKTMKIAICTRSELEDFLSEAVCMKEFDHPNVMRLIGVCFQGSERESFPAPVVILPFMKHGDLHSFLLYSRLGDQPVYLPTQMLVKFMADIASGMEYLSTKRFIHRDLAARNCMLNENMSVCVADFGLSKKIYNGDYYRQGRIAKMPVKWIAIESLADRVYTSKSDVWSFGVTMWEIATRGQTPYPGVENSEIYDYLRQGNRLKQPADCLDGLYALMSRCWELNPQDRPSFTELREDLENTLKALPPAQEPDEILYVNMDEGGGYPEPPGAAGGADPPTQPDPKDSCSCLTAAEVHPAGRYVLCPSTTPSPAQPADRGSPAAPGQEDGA

Per the record, `COC[C@H](C)Nc1ncc2c(-c3cnn(C(C)(C)C(=O)N4C[C@H]5CC[C@@H](C4)O5)c3)cc([C@H]3CC[C@H](O)CC3)n2n1` has IC50 of ≤ 100 nM

Per the record, `COC[C@H](C)Nc1ncc2c(-c3cnn(C4COC4)c3)cc([C@H]3CC[C@H](O)C(F)(F)C3)n2n1` has IC50 of ≤ 100 nM

Per the record, `COC[C@H](C)Nc1ncc2c(-c3cnn(C(C)(C)c4nnc([C@H]5CCCO5)o4)c3)cc([C@H]3CC[C@H](O)CC3)n2n1` has IC50 of ≤ 100 nM

Per the record, `COC[C@H](C)Nc1ncc2c(-c3cnn([C@@H]4CO[C@H]5OCC[C@H]54)c3)cc([C@H]3CC[C@H](O)CC3)n2n1` has IC50 of ≤ 100 nM

Per the record, COC[C@H](C)Nc1ncc2c(-c3cnn(C(C)(C)C(=O)C4C[C@H]5COC[C@H]5C4)c3)cc([C@H]3CC[C@H](O)CC3)n2n1 (some centres unmarked) has IC50 of ≤ 100 nM

Per the record, COC[C@H](C)Nc1ncc2c(-c3cnn(C(C)(C)c4ncc(C)o4)c3)cc(C3CCC(O)CC3)n2n1 (some centres unmarked) has IC50 of ≤ 100 nM

Per the record, `CNS(=O)(=O)c1ccc(-c2cc([C@H]3CC[C@H](O)CC3)n3nc(N[C@@H](C)COC)ncc23)cn1` has IC50 of ≤ 100 nM

Per the record, `COC[C@H](C)Nc1ncc2c(C3=C[C@H]4CC[C@@H](C3)N4CC(F)(F)F)cc([C@H]3CC[C@H](O)CC3)n2n1` has IC50 of ≤ 100 nM

Per the record, `COC[C@H](C)Nc1ncc2c(-c3ccc([C@@H](C)N4CCOCC4)cc3)cc([C@H]3CC[C@H](O)CC3)n2n1` has IC50 of ≤ 100 nM

Per the record, COCC(C)Nc1ncc2c(-c3cnn(C4COC4)c3)cc(C3CCC(O)CC3)n2n1 (centres unmarked) has IC50 of ≤ 100 nM

Per the record, `COC[C@H](C)Nc1ncc2c(C3=C[C@@H]4CC[C@H](C3)N4)cc([C@H]3CC[C@H](O)CC3)n2n1` has IC50 of ≤ 100 nM

Per the record, `COC[C@H](C)Nc1ncc2c(-c3cnn(C4(C(=O)NC(C)C)CC4)c3)cc([C@H]3CC[C@H](O)CC3)n2n1` has IC50 of ≤ 100 nM

Per the record, CCCCC[C@H](C)Nc1ncc2c(N3CCC(N(C)C)CC3)cc(C3CCC(O)CC3)n2n1.Cl (some centres unmarked) [Compound 115, hydrochloride] has IC50 of 100 to 1000 nM

Per the record, `COC[C@H](C)Nc1ncc2c([C@H]3CC[C@@H](C(=O)N4CCOCC4)CC3)cc([C@H]3CC[C@H](O)CC3)n2n1` has IC50 of 100 to 1000 nM

Per the record, `COC[C@H](C)Nc1ncc2c(-c3ccnc(O[C@@H]4CCCNC4)c3)cc([C@H]3CC[C@H](O)CC3)n2n1` has IC50 of ≤ 100 nM
